This section presents compounds with their documented PPB values.
- Assay comment: Protein binding in human plasma at 5 uM incubated for 5 hrs by LC-MS/MS-based equilibrium dialysis method
- Format: ADME, cell-free

Smiles structure	PPB
Cc1c(C(=O)Nc2ccc(F)c(C(F)F)c2)sc(N)c1C(N)=O	89%
Cc1c(C(=O)Nc2ccc(F)c(C#N)c2)sc(N)c1C(N)=O	80%
Cc1c(C(=O)Nc2ccc(F)c(F)c2)sc(N)c1C(N)=O	86%
Cc1c(C(=O)Nc2ccc(F)c(Cl)c2)sc(N)c1C(N)=O	94%
Cc1c(C(=O)Nc2ccccc2)sc(N)c1C(N)=O	86%

Now look at this entry.
Input line: Specify measured PPB for `Cc1cc(NC(=O)c2sc(N)c(C(N)=O)c2C)ccc1F` .
Output line: 91%
